Biological target: T1, human CAPRIN-1 protein on cell membrane surfaces of human cancer cells (human, UniProt Q14444 2-709)
T1 construct: whole, on cells; Endogenous protein on cancer cells, stained without permeation of the cell membrane
T1 sequence (looked up): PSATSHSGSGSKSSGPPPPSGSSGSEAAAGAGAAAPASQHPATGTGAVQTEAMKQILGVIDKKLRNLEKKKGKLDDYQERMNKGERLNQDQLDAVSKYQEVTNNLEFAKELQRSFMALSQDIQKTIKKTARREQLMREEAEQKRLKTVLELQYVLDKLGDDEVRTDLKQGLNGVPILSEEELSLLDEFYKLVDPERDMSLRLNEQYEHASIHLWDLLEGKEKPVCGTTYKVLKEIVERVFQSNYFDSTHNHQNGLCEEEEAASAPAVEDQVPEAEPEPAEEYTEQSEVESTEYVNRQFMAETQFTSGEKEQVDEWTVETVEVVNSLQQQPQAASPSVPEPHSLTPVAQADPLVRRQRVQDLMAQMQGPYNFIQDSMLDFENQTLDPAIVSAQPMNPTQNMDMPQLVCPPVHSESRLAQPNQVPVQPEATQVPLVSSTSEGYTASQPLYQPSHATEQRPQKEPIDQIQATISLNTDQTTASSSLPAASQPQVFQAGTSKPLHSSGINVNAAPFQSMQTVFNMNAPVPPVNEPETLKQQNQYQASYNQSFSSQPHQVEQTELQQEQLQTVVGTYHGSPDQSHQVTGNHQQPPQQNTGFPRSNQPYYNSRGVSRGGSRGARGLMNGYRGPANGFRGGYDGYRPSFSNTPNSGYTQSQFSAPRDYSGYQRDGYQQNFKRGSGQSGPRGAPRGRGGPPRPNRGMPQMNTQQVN
Experiment: flow cytometry on cancer cells expressing CAPRIN-1
measurementName: binding result

The examples below pair each entry with its known result.
binder	binding result
anti-CAPRIN-1 antibody (ai) (antibody, V domains shown) VH: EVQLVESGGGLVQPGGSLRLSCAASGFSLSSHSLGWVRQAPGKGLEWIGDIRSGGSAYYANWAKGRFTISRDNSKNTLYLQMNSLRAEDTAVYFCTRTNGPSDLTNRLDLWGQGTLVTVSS VL: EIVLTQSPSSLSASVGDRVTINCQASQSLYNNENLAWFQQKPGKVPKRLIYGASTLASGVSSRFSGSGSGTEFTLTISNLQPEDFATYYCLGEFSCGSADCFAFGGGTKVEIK	binds
anti-CAPRIN-1 antibody (j) (antibody, V domains shown) VH: DAELVKPGASVKISCKASGYTFTDHSIHWVQQKPEQGLEWIGYISPGNGNIKYNEKFKGKATLTADKSSSTAYMQLNSLTSEDSAVYFCKRSLGRGGPYYFDYWGQGTTVTVSS VL: DIVLTQAAPSLPVTPGESVSISCRSSKSLLHSNGNTYLYWFLQRPGQSPQLLIYRMSNLASGVPDRFSGSGSGTAFTLRISRVEAEDVGVYYCMQHREYPVTFGSGPN	binds
anti-CAPRIN-1 antibody (ag) (antibody, V domains shown) VH: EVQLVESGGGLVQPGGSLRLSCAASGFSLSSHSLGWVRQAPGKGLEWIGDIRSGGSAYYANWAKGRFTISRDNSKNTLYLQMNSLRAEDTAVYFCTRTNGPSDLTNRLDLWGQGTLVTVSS VL: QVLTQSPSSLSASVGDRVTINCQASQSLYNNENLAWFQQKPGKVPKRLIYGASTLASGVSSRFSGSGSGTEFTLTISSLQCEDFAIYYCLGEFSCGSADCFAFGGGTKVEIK	binds
anti-CAPRIN-1 antibody (ak) (antibody, V domains shown) VH: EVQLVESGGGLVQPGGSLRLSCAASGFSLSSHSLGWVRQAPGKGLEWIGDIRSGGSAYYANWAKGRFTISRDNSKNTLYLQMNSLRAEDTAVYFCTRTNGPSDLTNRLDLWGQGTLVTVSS VL: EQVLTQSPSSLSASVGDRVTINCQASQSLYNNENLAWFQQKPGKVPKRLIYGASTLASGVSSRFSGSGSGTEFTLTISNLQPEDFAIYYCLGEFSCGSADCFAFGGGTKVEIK	binds

The measured binding result associated with anti-CAPRIN-1 antibody (b) (antibody, V domains shown) VH: EQSLVESGGGLVQPGGSLRLSCAASGFSLSSHSLGWVRQAPGKGLEWIGDIRSGGSAYYANWAKGRFTISRDNSKNTLYLQMNSLRAEDTAVYYCTRTNGPSDLTNRLDLWGQGTLVTVSS VL: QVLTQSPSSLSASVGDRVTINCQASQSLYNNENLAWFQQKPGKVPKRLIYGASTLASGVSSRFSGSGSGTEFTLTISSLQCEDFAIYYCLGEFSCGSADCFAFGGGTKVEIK reads binds
